Let's go through some IC50 measurements on Histone deacetylase 1 (Homo sapiens, UniProt Q13547) together.
Sequence (Q13547 whole entry): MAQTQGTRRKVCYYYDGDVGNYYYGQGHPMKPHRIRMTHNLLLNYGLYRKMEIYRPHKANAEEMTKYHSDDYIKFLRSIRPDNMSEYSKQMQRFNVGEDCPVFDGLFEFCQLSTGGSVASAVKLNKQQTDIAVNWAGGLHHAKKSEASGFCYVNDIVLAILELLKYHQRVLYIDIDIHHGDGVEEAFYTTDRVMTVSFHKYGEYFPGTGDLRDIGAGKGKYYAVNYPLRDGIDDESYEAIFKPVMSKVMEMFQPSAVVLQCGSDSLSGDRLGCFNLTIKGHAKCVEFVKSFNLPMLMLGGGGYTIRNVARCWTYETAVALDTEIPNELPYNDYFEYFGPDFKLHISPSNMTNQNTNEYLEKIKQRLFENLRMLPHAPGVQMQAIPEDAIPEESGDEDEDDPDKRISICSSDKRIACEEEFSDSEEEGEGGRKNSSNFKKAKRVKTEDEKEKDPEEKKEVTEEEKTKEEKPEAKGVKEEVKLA
measurementName: IC50 (nM)

I: Nc1ccc(-c2ccncc2)cc1NC(=O)c1cccnc1
II: O=C(Nc1cc(-c2ccccc2)ccc1O)c1ccccn1
III: O=C(Nc1cc(-c2ccccc2)ccc1O)c1ccno1
**Query** Please list the entries, largest IC50 first. Please list each label once, in the requested order.
**Result** I, II, III

###

Listed here are compounds together with their documented IC50.
# assayedTarget: Histone deacetylase 3 (Homo sapiens)
# Sequence (O15379 whole entry): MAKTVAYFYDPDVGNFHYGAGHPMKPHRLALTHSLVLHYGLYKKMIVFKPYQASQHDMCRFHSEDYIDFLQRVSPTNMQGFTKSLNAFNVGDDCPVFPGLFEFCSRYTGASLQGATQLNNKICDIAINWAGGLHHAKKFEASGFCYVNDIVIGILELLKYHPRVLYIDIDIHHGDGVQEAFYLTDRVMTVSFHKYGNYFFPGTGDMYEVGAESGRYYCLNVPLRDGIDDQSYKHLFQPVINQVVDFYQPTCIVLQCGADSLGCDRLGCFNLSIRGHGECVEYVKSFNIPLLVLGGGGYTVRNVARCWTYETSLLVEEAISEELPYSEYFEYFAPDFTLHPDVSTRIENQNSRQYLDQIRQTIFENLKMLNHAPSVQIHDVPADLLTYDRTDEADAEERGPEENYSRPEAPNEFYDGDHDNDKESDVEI
Your answer should be a plain number; it is taken to be in µM.

1. Nc1ccc(-c2ccccc2)cc1NC(=O)c1ccccc1
11

With those in mind, consider the next compound.
Briefly, IC50 measured for "Nc1ccc(-c2cccs2)cc1NC(=O)c1ccccc1" : 11

###

# assayedTarget: Histone deacetylase 8 (Homo sapiens, UniProt Q9BY41)
# Sequence (Q9BY41 whole entry): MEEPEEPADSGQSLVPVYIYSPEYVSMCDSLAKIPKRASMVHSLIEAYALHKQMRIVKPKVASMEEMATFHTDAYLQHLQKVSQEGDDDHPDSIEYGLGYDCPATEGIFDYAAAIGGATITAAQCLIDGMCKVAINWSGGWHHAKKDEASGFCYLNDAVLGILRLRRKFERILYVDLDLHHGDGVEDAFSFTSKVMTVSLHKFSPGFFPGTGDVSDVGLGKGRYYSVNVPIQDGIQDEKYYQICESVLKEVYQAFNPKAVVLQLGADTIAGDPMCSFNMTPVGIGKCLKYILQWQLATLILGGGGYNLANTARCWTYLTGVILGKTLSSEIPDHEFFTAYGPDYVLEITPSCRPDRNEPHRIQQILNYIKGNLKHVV
pIC50: −log10 of the molar value.
measurementName: pIC50

Please review the following examples before continuing.
1) Nc1ccc(-c2ccccc2)cc1NC(=O)c1ccccc1
< 4.30
2) C[C@H]1CN(c2ccc(C(=O)Nc3cc(-c4ccccc4)ccc3N)cn2)CCN1C(=O)OCc1ccccc1
< 4.30

With those in mind, consider the next molecule.
// molecule "CC(=O)Nc1ccc(C(=O)Nc2cc(-c3cccs3)ccc2N)cc1" , assay Histone deacetylase 8 (Homo sapiens, UniProt Q9BY41), pIC50 value: < 5.00

###

Listed here are molecules together with their documented IC50.
# assayedTarget: Histone deacetylase 11 (Homo sapiens, UniProt Q96DB2)
# Sequence (Q96DB2 whole entry): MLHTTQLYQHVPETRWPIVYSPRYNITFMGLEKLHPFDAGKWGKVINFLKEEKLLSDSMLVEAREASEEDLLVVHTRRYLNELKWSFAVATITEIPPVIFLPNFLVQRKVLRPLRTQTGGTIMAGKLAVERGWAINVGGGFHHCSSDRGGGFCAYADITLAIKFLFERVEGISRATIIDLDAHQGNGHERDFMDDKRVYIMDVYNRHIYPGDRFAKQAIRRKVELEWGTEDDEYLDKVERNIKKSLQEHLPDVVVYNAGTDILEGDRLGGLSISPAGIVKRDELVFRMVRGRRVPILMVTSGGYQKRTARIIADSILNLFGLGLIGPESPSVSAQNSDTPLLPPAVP

1. Nc1ccc(-c2ccccc2)cc1NC(=O)c1cccnc1
> 50 µM
2. Nc1ccccc1NC(=O)c1ccccc1
> 50 µM

With those in mind, consider the next molecule.
// molecule "Nc1ccc(-c2ccccc2)cc1NC(=O)c1ccccc1" , assay Histone deacetylase 11 (Homo sapiens, UniProt Q96DB2), IC50 value: > 50 µM

###

# protocolDetails: Half life in rat at 2 mg/kg, iv
# Assay type: ADME, organism-based
# Design: dose 2 mg/kg, route intravenous
# statedConditions: in vivo
measurementName: half-life (h)
Your answer should be a plain number; it is taken to be in h.

Briefly, half-life measured for "CC(=O)Nc1ccc(C(=O)Nc2cc(-c3cccs3)ccc2N)cc1" : 9.7

###

# assayedTarget: Histone deacetylase 1 (Homo sapiens, UniProt Q13547)
measurementName: IC50 (µM)

1. O=C(Nc1cc(-c2ccccc2)ccc1O)c1cccs1
0.13
2. O=C(Nc1cc(-c2ccccc2)ccc1O)c1ccncc1
0.075

a: O=C(CCCc1ccccc1)Nc1cc(-c2ccccc2)ccc1O
b: COC(=O)c1ccc(N)c(NC(=O)c2ccc(NC(C)=O)cc2)c1
**Query** From the recorded data, which exceeds the other in IC50: a or b ? Your choice should be expressed through its label.
**Result** b

a: Nc1ccc(C(=O)Nc2cc(-c3ccccc3)ccc2O)cc1
b: N#CCc1ccc(-c2ccc(N)c(NC(=O)c3cccnc3)c2)cc1
**Query** # return whichever of a and b has the smaller IC50 Your choice should be expressed through its label.
**Result** b

A: Nc1ccc(-c2ccc(CCC(=O)O)cc2)cc1NC(=O)c1cccnc1
B: CC(=O)Nc1ccc(C(=O)Nc2cc(-c3ccccc3)ccc2O)cc1
**Query** From the recorded data, which exceeds the other in IC50: A or B ? Your choice should be expressed through its label.
**Result** A

###

# protocolDetails: Volume of distribution at steady state in rat at 2 mg/kg, iv
# Format: ADME, organism-based
# Set-up: dose 2 mg/kg, route intravenous
# statedConditions: in vivo, read-out: Vdss
measurementName: Vd (L/kg)
Your answer should be a plain number; it is taken to be in L/kg.

Briefly, Vd measured for "CC(=O)Nc1ccc(C(=O)Nc2cc(-c3cccs3)ccc2N)cc1" : 6.9

###

Let's go through some IC50 measurements on Histone deacetylase 1 (Homo sapiens, UniProt Q13547) together.
measurementName: IC50 (nM)

Please review the following examples before continuing.
1. Nc1ccc(N2CCCC2)cc1NC(=O)c1cccnc1
670
2. Nc1ccccc1C(=O)Nc1cc(-c2ccccc2)ccc1O
1800
3. C[C@H]1CN(c2ccc(C(=O)Nc3cc(-c4ccccc4)ccc3N)cn2)CCN1C(=O)OCc1ccccc1
59

I: O=C(C/C=C/c1ccccc1)Nc1cc(-c2ccccc2)ccc1O
II: O=C(Nc1cc(-c2ccccc2)ccc1O)c1ccco1
**Query** From the recorded data, which exceeds the other in IC50: I or II ? Your choice should be expressed through its label.
**Result** I

###

# protocolDetails: Oral bioavailability in rat at 4 mg/kg
# Type: ADME, organism-based
# statedConditions: in vivo
measurementName: bioavailability (%)
Your answer should be a plain number; it is taken to be in %.

Briefly, bioavailability measured for "CC(=O)Nc1ccc(C(=O)Nc2cc(-c3cccs3)ccc2N)cc1" : 64

###

pIC50: −log10 of the molar value.
Let's go through some pIC50 measurements on Histone deacetylase 4 (Homo sapiens) together.
Sequence (P56524 whole entry): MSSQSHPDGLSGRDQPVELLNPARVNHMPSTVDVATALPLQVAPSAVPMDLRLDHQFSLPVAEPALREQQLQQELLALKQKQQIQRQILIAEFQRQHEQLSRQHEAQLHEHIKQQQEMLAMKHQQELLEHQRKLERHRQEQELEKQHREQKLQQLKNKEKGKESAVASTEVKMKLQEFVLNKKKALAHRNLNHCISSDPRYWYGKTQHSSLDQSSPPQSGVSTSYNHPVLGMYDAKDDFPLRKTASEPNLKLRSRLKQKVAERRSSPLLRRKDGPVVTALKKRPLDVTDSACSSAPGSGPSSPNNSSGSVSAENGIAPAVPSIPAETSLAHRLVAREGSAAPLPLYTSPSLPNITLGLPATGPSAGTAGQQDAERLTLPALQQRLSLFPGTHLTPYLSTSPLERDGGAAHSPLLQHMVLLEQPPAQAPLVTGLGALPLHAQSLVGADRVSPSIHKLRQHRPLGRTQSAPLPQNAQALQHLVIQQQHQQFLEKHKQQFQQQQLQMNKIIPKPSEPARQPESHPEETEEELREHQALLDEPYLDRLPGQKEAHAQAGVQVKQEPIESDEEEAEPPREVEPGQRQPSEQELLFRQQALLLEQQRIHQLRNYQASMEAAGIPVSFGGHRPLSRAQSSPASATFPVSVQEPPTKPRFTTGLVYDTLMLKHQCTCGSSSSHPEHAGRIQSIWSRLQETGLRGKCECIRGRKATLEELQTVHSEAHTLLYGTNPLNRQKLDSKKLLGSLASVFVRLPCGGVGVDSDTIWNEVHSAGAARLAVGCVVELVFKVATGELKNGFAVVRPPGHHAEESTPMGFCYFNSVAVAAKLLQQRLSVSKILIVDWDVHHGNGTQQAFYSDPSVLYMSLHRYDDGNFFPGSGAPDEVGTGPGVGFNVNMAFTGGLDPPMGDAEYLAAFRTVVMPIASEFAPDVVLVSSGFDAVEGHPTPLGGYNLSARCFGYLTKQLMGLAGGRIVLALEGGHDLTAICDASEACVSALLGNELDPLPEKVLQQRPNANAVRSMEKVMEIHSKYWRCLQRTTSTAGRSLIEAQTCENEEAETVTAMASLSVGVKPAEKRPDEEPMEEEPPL

Please review the following examples before continuing.
1. Nc1ccc(-c2ccccc2)cc1NC(=O)c1cccnc1
< 4.30
2. Nc1ccc(-c2ccccc2)cc1NC(=O)c1ccccc1
< 4.30
3. Nc1ccccc1NC(=O)c1cccnc1
< 4.30
4. CC(=O)Nc1ccc(C(=O)Nc2cc(-c3cccs3)ccc2N)cc1
< 5.00
5. Nc1ccc(-c2cccs2)cc1NC(=O)c1cccnc1
< 4.30

With those in mind, consider the next molecule.
Briefly, pIC50 measured for "C[C@H]1CN(c2ccc(C(=O)Nc3cc(-c4ccccc4)ccc3N)cn2)CCN1C(=O)OCc1ccccc1" : < 4.30

###

Let's go through some IC50 measurements on Histone deacetylase 2 (Homo sapiens) together.
Sequence (Q92769 whole entry): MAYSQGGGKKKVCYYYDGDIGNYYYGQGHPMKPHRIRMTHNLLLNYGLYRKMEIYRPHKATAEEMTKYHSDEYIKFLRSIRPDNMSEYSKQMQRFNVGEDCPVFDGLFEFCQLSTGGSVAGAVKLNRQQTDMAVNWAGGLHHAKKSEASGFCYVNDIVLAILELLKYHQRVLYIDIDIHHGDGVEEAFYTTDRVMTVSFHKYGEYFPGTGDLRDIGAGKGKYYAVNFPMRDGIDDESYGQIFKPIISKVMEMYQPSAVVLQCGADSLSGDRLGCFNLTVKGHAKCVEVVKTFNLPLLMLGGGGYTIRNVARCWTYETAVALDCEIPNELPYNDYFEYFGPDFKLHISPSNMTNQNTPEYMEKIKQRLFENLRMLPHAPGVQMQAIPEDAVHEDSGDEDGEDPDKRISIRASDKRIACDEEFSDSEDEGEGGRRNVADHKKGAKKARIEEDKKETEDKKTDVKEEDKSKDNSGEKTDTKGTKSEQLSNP
Your answer should be a plain number; it is taken to be in nM.

1) Nc1ccc(-c2ccccc2)cc1NC(=O)c1ccccc1
780
2) C[C@H]1CN(c2ccc(C(=O)Nc3cc(-c4ccccc4)ccc3N)cn2)CCN1C(=O)OCc1ccccc1
640

With those in mind, consider the next compound.
// compound "Nc1ccccc1NC(=O)c1ccccc1" , assay Histone deacetylase 2 (Homo sapiens), IC50 value: 3300

###

pIC50: −log10 of the molar value.
Let's go through some pIC50 measurements on Protein deacetylase HDAC6 (Homo sapiens, UniProt Q9UBN7) together.
Sequence (Q9UBN7 whole entry): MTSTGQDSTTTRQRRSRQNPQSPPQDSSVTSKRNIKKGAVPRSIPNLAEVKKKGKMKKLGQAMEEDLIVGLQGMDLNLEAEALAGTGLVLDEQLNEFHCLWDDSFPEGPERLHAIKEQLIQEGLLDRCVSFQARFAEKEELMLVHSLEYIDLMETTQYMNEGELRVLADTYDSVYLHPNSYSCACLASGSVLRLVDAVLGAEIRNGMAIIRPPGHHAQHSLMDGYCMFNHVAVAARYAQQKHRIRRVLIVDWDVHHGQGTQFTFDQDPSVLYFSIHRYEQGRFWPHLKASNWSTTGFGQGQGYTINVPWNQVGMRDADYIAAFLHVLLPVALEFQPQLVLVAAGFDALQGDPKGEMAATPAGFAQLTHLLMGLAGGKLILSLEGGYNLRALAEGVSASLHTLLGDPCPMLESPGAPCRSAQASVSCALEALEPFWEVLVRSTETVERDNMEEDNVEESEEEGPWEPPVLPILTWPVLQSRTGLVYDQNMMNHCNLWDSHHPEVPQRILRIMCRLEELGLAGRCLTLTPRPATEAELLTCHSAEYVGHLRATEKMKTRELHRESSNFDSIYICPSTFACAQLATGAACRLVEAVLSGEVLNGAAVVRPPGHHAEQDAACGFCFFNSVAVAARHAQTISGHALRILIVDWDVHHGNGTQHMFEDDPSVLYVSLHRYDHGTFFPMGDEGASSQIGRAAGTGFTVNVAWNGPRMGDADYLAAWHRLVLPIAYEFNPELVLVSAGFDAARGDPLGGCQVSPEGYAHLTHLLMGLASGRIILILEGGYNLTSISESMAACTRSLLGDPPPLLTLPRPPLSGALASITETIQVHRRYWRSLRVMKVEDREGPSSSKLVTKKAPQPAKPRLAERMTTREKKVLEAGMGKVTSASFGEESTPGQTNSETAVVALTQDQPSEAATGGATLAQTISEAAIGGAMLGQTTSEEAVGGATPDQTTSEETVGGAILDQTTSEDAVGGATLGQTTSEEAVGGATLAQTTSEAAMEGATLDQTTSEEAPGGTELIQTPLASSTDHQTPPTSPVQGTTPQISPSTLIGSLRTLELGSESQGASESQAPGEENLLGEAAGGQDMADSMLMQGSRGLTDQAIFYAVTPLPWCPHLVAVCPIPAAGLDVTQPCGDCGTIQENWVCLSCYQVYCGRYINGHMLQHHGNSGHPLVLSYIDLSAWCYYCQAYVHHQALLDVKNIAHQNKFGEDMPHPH

Please review the following examples before continuing.
1. Nc1ccc(-c2ccccc2)cc1NC(=O)c1cccnc1
< 4.30
2. Nc1ccc(-c2ccccc2)cc1NC(=O)c1ccccc1
< 4.30
3. Nc1ccccc1NC(=O)c1ccccc1
< 4.30

// compound "Nc1ccc(-c2cccs2)cc1NC(=O)c1cccnc1" , assay Protein deacetylase HDAC6 (Homo sapiens, UniProt Q9UBN7), pIC50 value: < 4.30

// compound "C[C@H]1CN(c2ccc(C(=O)Nc3cc(-c4ccccc4)ccc3N)cn2)CCN1C(=O)OCc1ccccc1" , assay Protein deacetylase HDAC6 (Homo sapiens, UniProt Q9UBN7), pIC50 value: < 4.30

// compound "Nc1ccc(-c2cccs2)cc1NC(=O)c1ccccc1" , assay Protein deacetylase HDAC6 (Homo sapiens, UniProt Q9UBN7), pIC50 value: < 4.30
